What furin cleavage Z-score was measured for each of the following?
assayed-system: furin, P09958;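 also: purified furin at 1:10 enzyme:substrate in 50 mM HEPES pH 7.5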
Sequence (P09958 whole entry): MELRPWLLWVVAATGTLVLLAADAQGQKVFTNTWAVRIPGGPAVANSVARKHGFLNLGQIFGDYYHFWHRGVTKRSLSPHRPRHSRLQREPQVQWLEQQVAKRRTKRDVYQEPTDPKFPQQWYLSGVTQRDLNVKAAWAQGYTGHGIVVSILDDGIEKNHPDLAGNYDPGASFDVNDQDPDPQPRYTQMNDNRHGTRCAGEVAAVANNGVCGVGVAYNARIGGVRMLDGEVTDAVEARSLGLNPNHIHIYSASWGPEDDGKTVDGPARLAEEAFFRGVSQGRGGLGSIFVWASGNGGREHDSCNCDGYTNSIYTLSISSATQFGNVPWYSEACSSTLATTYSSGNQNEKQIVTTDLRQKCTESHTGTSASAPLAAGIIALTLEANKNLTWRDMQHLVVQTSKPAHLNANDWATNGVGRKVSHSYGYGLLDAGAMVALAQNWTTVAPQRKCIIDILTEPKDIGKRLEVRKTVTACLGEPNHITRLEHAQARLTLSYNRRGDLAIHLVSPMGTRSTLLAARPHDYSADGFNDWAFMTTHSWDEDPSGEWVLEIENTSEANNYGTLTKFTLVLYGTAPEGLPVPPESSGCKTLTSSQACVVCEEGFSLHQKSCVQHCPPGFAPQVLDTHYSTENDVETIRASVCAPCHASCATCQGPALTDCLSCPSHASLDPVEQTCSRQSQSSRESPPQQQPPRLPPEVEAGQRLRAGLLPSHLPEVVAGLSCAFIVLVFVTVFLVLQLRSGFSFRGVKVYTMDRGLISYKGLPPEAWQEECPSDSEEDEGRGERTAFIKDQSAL
assay-explanation: furin cleavage Z-score vs untreated control; higher = more cleavage, active = 3.5 or more, inactive = 1 or less, 8 variable residues between constant flanks
stated-conditions: 15 min
Some of the results follow. No count for the full screen is at hand.

>>> df
                       residues              observable            reading
0   CAYVGGPLTNAGNASASA [HC1501]  furin cleavage Z-score  -0.463 (inactive)
1  CASLKRDVSLAGNASASA [FS-2473]  furin cleavage Z-score  0.0335 (inactive)
2  CARSQRSWRLAGNASASA [FS-1162]  furin cleavage Z-score  -0.415 (inactive)

Hey, can you go through the list below and give me furin cleavage Z-score for every item?
1. CADMEVVTSTAGNASASA [HC2286]
2. CASHSRVRRAAGNASASA [FS-294]
3. CARARRLRREAGNASASA [FS-288]
4. CARKARSYIKAGNASASA [FS-2340]
5. CATPRRQKRLAGNASASA [FS-881]
6. CAMVECSQHLAGNASASA [HC1690]

-0.986 (inactive)
9.7 (active)
12.3 (active)
0.583 (inactive)
11.3 (active)
0.64 (inactive)
